Where do these numbers come from? They come from paper PMC12527922.

- measured on: α7–5HT3 mutant chimeric channels (Homo sapiens, UniProt P36544, Q139L)
- assay protocol: cell-based
- Type: cell-based, human α7 nAChR LBD, mouse 5HT3 IPD
- condition label: read-out: EC50 at a7 5HT3 Q139L; sheet 1d; single determinations
attribute measured: EC50

[
  {
    "compound": "COC(=O)[C@H]1[C@@H](OC(=O)c2ccccc2)C[C@@H]2CC[C@H]1N2C [cocaine]",
    "measured on": "α7–5HT3 mutant chimeric channels (Homo sapiens, UniProt P36544, Q139L)",
    "observed value": "> 30 µM"
  }
]

====

- measured on: α7–5HT3 mutant chimeric channels (Homo sapiens, UniProt P36544, Q139R)
- Sequence (P23979 242-489): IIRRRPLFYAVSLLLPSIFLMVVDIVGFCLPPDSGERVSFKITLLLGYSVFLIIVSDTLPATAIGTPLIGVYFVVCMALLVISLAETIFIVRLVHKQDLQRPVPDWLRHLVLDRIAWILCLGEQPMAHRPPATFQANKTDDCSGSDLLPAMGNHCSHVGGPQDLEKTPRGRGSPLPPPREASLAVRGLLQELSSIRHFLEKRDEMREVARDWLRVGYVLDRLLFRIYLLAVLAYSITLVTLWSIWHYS
- Sequence (P36544 23-224 Q139R): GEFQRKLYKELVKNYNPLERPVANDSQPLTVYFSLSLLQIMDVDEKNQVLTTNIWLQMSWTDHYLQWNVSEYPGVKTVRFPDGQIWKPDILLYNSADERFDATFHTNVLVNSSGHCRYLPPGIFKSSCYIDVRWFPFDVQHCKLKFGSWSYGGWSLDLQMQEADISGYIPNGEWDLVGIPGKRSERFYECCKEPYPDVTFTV
- assay protocol: cell-based
- Format: cell-based, human α7 nAChR LBD, mouse 5HT3 IPD
attribute measured: EC50

[
  {
    "structure": "COC(=O)[C@H]1[C@@H](OC(=O)c2ccccc2)C[C@@H]2CC[C@H]1N2C",
    "measured on": "α7–5HT3 mutant chimeric channels (Homo sapiens, UniProt P36544, Q139R)",
    "observed value": "> 30 µM"
  }
]
